Assay: in vivo
Details: rabbit, Rapamycin level, Blood
Measured attribute: concentration at 1 day (ng/mL)

CO[C@H]1C[C@@H]2CC[C@@H](C)[C@@](O)(O2)C(=O)C(=O)N2CCCC[C@H]2C(=O)O[C@H]([C@H](C)C[C@@H]2CC[C@@H](O)[C@H](OC)C2)CC(=O)[C@H](C)/C=C(\C)[C@@H](O)[C@@H](OC)C(=O)[C@H](C)C[C@H](C)/C=C/C=C/C=C/1C [sirolimus, rapamycin] ... 4.63

---

System: Human umbilical vein endothelial cells (HUVEC)
Test: Inhibition of VEGF-induced proliferation, BrdU incorporation
Format: cell-based
Conditions: Homo sapiens, 12.5 ng/mL VEGF
Measured attribute: IC50 (µM)

CO[C@H]1C[C@@H]2CC[C@@H](C)[C@@](O)(O2)C(=O)C(=O)N2CCCC[C@H]2C(=O)O[C@H]([C@H](C)C[C@@H]2CC[C@@H](OC(=O)C(C)(CO)CO)[C@H](OC)C2)CC(=O)[C@H](C)/C=C(\C)[C@@H](O)[C@@H](OC)C(=O)[C@H](C)C[C@H](C)/C=C/C=C/C=C/1C ... 0.0159
CO[C@H]1C[C@@H]2CC[C@@H](C)[C@@](O)(O2)C(=O)C(=O)N2CCCC[C@H]2C(=O)O[C@H]([C@H](C)C[C@@H]2CC[C@@H](O)[C@H](OC)C2)CC(=O)[C@H](C)/C=C(\C)[C@@H](O)[C@@H](OC)C(=O)[C@H](C)C[C@H](C)/C=C/C=C/C=C/1C ... 0.0295
CO[C@H]1C[C@@H]2CC[C@@H](C)[C@@](O)(O2)C(=O)C(=O)N2CCCC[C@H]2C(=O)O[C@H]([C@H](C)C[C@@H]2CC[C@@H](OCCO)[C@H](OC)C2)CC(=O)[C@H](C)/C=C(\C)[C@@H](O)[C@@H](OC)C(=O)[C@H](C)C[C@H](C)/C=C/C=C/C=C/1C ... 0.0225
C=CC[C@@H]1/C=C(\C)C[C@H](C)C[C@H](OC)[C@H]2O[C@@](O)(C(=O)C(=O)N3CCCC[C@H]3C(=O)O[C@H](/C(C)=C/[C@@H]3CC[C@@H](O)[C@H](OC)C3)[C@H](C)[C@@H](O)CC1=O)[C@H](C)C[C@@H]2OC ... 324
CO[C@H]1C[C@@H]2CC[C@@H](C)[C@@](O)(O2)C(=O)C(=O)N2CCCC[C@H]2C(=O)O[C@H]([C@H](C)C[C@@H]2CC[C@H](n3cnnn3)[C@H](OC)C2)CC(=O)[C@H](C)/C=C(\C)[C@@H](O)[C@@H](OC)C(=O)[C@H](C)C[C@H](C)/C=C/C=C/C=C/1C ... 0.00178
